Molecular target: Stp1 (UniProt B3LFK1)
Sequence: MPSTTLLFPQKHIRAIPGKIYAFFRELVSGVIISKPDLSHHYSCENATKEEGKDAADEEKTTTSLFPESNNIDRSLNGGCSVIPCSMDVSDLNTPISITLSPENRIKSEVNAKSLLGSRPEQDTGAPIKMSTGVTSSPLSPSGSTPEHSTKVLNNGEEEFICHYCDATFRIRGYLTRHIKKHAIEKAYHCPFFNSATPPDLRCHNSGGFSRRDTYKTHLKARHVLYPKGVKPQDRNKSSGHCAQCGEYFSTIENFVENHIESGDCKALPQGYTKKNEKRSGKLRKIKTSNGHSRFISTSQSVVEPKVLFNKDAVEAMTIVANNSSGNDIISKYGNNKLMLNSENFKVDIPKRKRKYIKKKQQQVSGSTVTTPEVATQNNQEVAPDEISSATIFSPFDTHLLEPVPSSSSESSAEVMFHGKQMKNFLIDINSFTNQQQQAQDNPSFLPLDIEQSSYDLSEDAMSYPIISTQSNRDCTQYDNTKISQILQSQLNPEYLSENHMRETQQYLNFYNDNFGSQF
Assay: PBM E-score (8-mer binding enrichment) (E-score (-0.5 to 0.5)); higher = stronger / more preferred TF binding
Settings: protein concentration: 200 nM; construct: GST-full length
The full ranking holds about 33,000 sequences; the median of “E-score (-0.5 to 0.5)” is about -0.016, and the highest 2% start at about 0.32. The sample as a whole holds a higher share of the highest values than the screen did.
value type: PBM E-score
Write the value as a bare number.

Use these answered entries as a reference point.
| seq text | PBM E-score |
| --- | --- |
| GCCGCGTA | 0.465 |
| AGATCCTG | -0.32 |
| TTCAACAA | 0.167 |
| CCCGGCAG | -0.227 |

Asked: Give reported PBM E-score value for "CAGTAACG"
Given back: 0.0111

Asked: Consider the sequence "CCTGCGGA" and give its recorded PBM E-score.
Given back: 0.0839

Asked: Give me measured PBM E-score, please, for this sequence: "ACTGCGGC"
Given back: 0.381

Asked: Retrieve PBM E-score measured for "ACCAAGGT" and print it.
Given back: 0.0467

Asked: Supply measured PBM E-score of "TCTTTGCA" in your reply.
Given back: 0.165

Asked: Specify reported PBM E-score for the sequence shown: "CTTGCTCC"
Given back: -0.0209

---

Molecular target: Stp1 (UniProt B3LFK1)
Sequence: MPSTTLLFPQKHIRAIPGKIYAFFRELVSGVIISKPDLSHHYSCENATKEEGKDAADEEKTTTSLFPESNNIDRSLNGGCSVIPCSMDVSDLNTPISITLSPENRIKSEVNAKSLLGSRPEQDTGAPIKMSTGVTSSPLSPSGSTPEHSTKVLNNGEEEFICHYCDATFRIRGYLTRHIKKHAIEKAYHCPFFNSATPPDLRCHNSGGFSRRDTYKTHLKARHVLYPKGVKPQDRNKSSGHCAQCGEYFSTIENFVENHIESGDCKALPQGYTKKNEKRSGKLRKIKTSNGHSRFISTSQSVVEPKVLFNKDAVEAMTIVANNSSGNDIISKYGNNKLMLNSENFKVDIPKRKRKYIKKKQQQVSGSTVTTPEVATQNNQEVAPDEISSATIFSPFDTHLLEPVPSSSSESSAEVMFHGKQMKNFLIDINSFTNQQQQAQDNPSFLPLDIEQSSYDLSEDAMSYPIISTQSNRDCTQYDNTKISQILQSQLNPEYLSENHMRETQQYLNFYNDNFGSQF
Test: PBM E-score (8-mer binding enrichment) (E-score (-0.5 to 0.5)); higher = stronger / more preferred TF binding
Conditions: protein concentration: 200 nM; construct: GST-full length
Over roughly 33,000 sequences, “E-score (-0.5 to 0.5)” has its median near -0.016; the highest 2% begin near 0.32. The entries come from a sample that favours the highest values as a whole.
# label = 1.0 if PBM E-score >= 0.1 else 0.0

Here are 2 sequences together with their reported answers.
| seq text | target of assay | assigned category |
| --- | --- | --- |
| CAACGGCG | Stp1 (UniProt B3LFK1) | 1.0 |
| AGACGGGG | Stp1 (UniProt B3LFK1) | 0.0 |

Asked: Does PBM E-score meet or surpass 0.1 for "CCGTTCCG" ?
Given back: 1.0

Asked: hey, is PBM E-score for this one >= 0.1? "TGGGGCAA"
Given back: 0.0

Asked: Assess whether reported PBM E-score for "AAACGGCG" sits at 0.1 or higher.
Given back: 1.0

---

Biological target: Stp1 (UniProt B3LFK1)
Sequence: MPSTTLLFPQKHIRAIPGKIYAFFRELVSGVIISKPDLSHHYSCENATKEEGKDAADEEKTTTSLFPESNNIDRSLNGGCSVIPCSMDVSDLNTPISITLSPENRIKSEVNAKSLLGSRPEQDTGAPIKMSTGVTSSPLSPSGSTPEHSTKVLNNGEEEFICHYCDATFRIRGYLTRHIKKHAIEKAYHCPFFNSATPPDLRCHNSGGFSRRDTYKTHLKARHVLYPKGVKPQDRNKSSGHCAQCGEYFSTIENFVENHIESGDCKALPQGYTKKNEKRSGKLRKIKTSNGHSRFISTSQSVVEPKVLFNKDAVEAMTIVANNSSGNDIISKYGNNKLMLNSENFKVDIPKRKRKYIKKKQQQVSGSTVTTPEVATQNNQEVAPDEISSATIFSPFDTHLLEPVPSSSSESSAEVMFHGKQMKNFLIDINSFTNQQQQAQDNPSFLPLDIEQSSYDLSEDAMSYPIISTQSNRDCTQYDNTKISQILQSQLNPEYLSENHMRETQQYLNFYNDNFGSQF
Experiment: PBM E-score (8-mer binding enrichment) (E-score (-0.5 to 0.5)); higher = stronger / more preferred TF binding
Settings: protein concentration: 200 nM; construct: GST-full length
In all, about 33,000 sequences were measured (“E-score (-0.5 to 0.5)”: median about -0.016, highest 2% from about 0.32 on). For the sample, the highest values were picked, then their nearest neighbours and some sequences at random.
I'd appreciate it if you could label each record using PBM E-score and these ranges: L = under 0.04, M = from 0.04 up to 0.2, H = 0.2 and over

| seq text | assigned category |
| --- | --- |
| ATATGCCC | L |
| CAAACGGA | H |
| GAGGCGAC | M |
| ACGGCGGA | H |
| CCATCCAA | L |

Asked: Hi there! Could you help me figure out the category for "ACCTCCCG" please?
Given back: L

Asked: Class for "ATAGTTTG" ?
Given back: M

Asked: Class (by measured PBM E-score) for "ACGACGCA"
Given back: L

Asked: Categorize the following entry: "AAAACGGT"
Given back: L

Asked: Which of the defined bands does the recorded PBM E-score of "GCGGCATA" sit within?
Given back: H

Asked: Lab note: which band did "AATAAGGC" land in?
Given back: H

---

Target: Stp1 (UniProt B3LFK1)
Sequence: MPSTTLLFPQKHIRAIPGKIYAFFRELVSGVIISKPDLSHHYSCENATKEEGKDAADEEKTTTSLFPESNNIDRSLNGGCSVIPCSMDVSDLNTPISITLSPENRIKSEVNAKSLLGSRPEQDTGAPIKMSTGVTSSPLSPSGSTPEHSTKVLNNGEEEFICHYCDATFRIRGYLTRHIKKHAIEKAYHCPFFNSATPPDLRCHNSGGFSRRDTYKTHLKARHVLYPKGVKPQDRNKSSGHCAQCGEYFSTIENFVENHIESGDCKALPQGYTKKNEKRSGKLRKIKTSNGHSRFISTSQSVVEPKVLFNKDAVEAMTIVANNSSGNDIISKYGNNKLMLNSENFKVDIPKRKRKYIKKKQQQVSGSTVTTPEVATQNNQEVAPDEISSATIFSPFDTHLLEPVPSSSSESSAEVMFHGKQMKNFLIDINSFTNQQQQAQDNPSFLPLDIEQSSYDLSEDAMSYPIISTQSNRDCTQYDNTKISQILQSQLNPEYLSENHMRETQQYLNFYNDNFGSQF
Assay: PBM E-score (8-mer binding enrichment) (E-score (-0.5 to 0.5)); higher = stronger / more preferred TF binding
Conditions: protein concentration: 200 nM; construct: GST-full length
The full ranking holds about 33,000 sequences; the median of “E-score (-0.5 to 0.5)” is about -0.016, and the highest 2% start at about 0.32. This is one part of a sample in which the highest values are shown more often than they occur.
Use 0.1 as the dividing line for PBM E-score, with the line itself on the Met side and lower values as Not met.

Worked set:
| seq text | assigned category |
| --- | --- |
| AAAAGGCC | Met |
| ACCGCATA | Not met |
| CGGCTCAC | Met |

Asked: Please tell me: is the sequence "AGAAGGCG" at or over 0.1 in terms of PBM E-score?
Given back: Met

Asked: hey, is PBM E-score for this one >= 0.1? "CCCCGCAC"
Given back: Not met

Asked: Determine whether this sequence has PBM E-score no lower than 0.1: "CTCGCGGC"
Given back: Met

Asked: Decide: PBM E-score of "CGAGTCCG" >= 0.1?
Given back: Met

Asked: Has "CTAGACGA" a recorded PBM E-score greater than or equal to 0.1?
Given back: Met
